Ref: patent US20250188092A1

// reported MIC per item
- Tested on: non-replicating cultures of M. tuberculosis H37Rv transformed with lux ABCDE
- protocol_notes: microbe, parasite or virus in culture
- Format: cell-based, Mycobacterium tuberculosis
- test_settings: Mycobacterium tuberculosis, H37RV; […]; ≥90% reduction in luminescence; read-out: MIC90 LORA

compound	bound_sign	MIC / µM
CO[C@H]1/C=C/O[C@@]2(C)Oc3c(C)c(O)c4c(=O)c(c5oc6cccc(OCCCCN7CCN(C(=O)OC(C)(C)C)CC7)c6nc-5c4c3C2=O)NC(=O)/C(C)=C\C=C\[C@H](C)[C@H](O)[C@@H](C)[C@@H](O)[C@@H](C)[C@H](OC(C)=O)[C@@H]1C	=	0.058
CO[C@H]1/C=C/O[C@@]2(C)Oc3c(C)c(O)c4c(=O)c(c5oc6cccc(OCCCCN7CCN(C)CC7)c6nc-5c4c3C2=O)NC(=O)/C(C)=C\C=C\[C@H](C)[C@H](O)[C@@H](C)[C@@H](O)[C@@H](C)[C@H](OC(C)=O)[C@@H]1C	=	0.186
CO[C@H]1/C=C/O[C@@]2(C)Oc3c(C)c(O)c4c(=O)c(c5oc6cc(N7CCS(=O)(=O)CC7)cc(OCc7ccc(CN8CCOCC8)cc7)c6nc-5c4c3C2=O)NC(=O)/C(C)=C\C=C\[C@H](C)[C@H](O)[C@@H](C)[C@@H](O)[C@@H](C)[C@H](OC(C)=O)[C@@H]1C [Compound 17j]	>	0.02
CO[C@H]1/C=C/O[C@@]2(C)Oc3c(C)c(O)c4c(=O)c(c5oc6cc(N7CCC(C(=O)O)CC7)cc(OCc7ccc(CN8CCOCC8)cc7)c6nc-5c4c3C2=O)NC(=O)/C(C)=C\C=C\[C@H](C)[C@H](O)[C@@H](C)[C@@H](O)[C@@H](C)[C@H](OC(C)=O)[C@@H]1C [Compound 17k]	>	0.02
